B1: TPR t1 (parent)
chain: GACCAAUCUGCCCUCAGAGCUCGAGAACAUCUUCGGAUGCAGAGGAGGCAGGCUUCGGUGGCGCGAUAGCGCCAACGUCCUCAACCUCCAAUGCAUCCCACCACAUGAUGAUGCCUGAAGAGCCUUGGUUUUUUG

Variants of: B1
assayMethodText: polymerase ribozyme fitness, log enrichment relative to wild type (log ratio); higher = more active; in vitro selection for triplet polymerase activity
Assign true (1) to entries whose polymerase ribozyme fitness (log ratio) meets or exceeds -1; assign false (0) to the rest.

mutationId	group
C11G C20G C49A G117C	false (0)
C62A U116G G120C U129A	false (0)
G39A G60C G113C C115A	false (0)
G48A G57A G60U G120A	true (1)
C11G G23U G39C G45C G47C C89U C99G C115U	false (0)
C8A U14A G110A	false (0)
G17A G42U G57A G120C	false (0)
A18C G117C	false (0)
A5G G48U G69A C89U C98U A121G	false (0)
G61A C70U G120U C123G	true (1)
A29G C115U U126G	false (0)
U21A U130G	true (1)
A29G G47A U55A C56G	false (0)
G19U C88A	false (0)
G42A G45U G57U C88U U130A	false (0)
U9C A43U	true (1)
C88G G110C	false (0)
C70U C102U U132A	false (0)
A2G G61A U116A	false (0)
C73A C104U	true (1)
U78A C115U	false (0)
